Please respond with reported residual activity for every item in the list.
- EXPERIMENTAL TARGET: NEK2 (human) (UniProt P51955)
- Sequence (P51955 whole entry, looked up): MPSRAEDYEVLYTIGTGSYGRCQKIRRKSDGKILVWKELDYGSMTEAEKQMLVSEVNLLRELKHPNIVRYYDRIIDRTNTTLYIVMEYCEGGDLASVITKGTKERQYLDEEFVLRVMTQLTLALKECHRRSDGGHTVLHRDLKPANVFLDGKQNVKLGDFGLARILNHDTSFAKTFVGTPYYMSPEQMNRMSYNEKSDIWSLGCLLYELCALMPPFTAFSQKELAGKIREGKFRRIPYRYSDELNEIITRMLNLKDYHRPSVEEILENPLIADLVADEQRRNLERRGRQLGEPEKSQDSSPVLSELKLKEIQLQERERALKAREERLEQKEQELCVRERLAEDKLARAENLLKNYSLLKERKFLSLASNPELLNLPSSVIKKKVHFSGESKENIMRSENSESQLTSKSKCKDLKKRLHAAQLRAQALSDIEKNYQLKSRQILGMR
- METHOD SUMMARY: radiometric filter-binding kinase assay
- MEASUREMENT CONTEXT: compound 10.0 µM

Prompt: Request the reported residual activity associated with "Cc1ccc(=O)n(-c2ccccc2)c1"
Completion: 95%

Prompt: Request the reported residual activity associated with "NCC(=O)Nc1ccc(-n2nc(C(F)(F)F)cc2-c2ccc3c(ccc4ccccc43)c2)cc1"
Completion: 92%

Prompt: Request the reported residual activity associated with "CCn1c(-c2nonc2N)nc2cncc(CNC3CCNCC3)c21"
Completion: 106%

Prompt: Request the reported residual activity associated with CC(C)C[C@H](NC(=O)CNC(=O)c1cc(Cl)ccc1Cl)B1OC(=O)CC(CC(=O)O)(C(=O)O)O1 (stereo partly specified)
Completion: 94%

Prompt: Request the reported residual activity associated with "O=C(Nc1ccccc1-c1cn2c(CN3CCNCC3)csc2n1)c1cnc2ccccc2n1"
Completion: 87%

Prompt: Request the reported residual activity associated with "N#Cc1c(O)c2c(-c3ccc(-c4ccccc4O)cc3)csc2[nH]c1=O"
Completion: 73%

Prompt: Request the reported residual activity associated with O=C(NOCC(O)CO)c1ccc(F)c(F)c1Nc1ccc(I)cc1Cl (stereo unspecified)
Completion: 94%

Prompt: Request the reported residual activity associated with "NC(=O)c1c(NC(=O)C2CC2)sc2c1CCCC2"
Completion: 92%

Prompt: Request the reported residual activity associated with "CCc1cncnc1N1CCN(Cc2nc3cc(C(F)(F)F)ccc3[nH]2)CC1"
Completion: 91%

Prompt: Request the reported residual activity associated with "COc1cc(C(=O)N2CCOCC2)c(F)cc1Nc1ncc(C(F)(F)F)c(NC2CC2)n1"
Completion: 72%

Prompt: Request the reported residual activity associated with "CCCC(CCC)C(=O)O"
Completion: 93%

###

- EXPERIMENTAL TARGET: TESK1 (human) (UniProt Q15569)
- Sequence (Q15569 whole entry, looked up): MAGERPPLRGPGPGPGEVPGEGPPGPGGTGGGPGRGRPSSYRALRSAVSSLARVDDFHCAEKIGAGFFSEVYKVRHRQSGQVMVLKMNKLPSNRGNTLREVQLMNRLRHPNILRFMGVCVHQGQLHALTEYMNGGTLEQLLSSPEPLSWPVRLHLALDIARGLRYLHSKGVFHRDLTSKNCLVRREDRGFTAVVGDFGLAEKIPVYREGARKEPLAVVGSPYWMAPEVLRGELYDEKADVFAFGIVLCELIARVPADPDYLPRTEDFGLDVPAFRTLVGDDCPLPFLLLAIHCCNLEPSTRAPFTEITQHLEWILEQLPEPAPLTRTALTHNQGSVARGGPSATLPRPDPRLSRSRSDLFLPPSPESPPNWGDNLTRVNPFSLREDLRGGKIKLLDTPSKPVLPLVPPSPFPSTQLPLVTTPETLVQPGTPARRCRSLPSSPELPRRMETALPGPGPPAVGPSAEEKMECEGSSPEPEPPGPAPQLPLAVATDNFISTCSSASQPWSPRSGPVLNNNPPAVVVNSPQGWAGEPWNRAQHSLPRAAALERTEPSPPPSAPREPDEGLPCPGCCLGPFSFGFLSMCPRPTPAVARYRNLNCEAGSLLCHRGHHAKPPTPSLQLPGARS
- METHOD SUMMARY: radiometric filter-binding kinase assay
- MEASUREMENT CONTEXT: compound 10.0 µM
Please respond with reported residual activity for every item in the list.
Give a bare numeral; the unit % is implied.

Prompt: // lookup residual activity | system=TESK1 (human) (UniProt Q15569) | key= "Cc1ccc(-c2ccc3c(ccc4sc5c(c43)NC[C@@H](C)NC5=O)n2)cn1"
Completion: 101

Prompt: // lookup residual activity | system=TESK1 (human) (UniProt Q15569) | key= "C=CC(=O)N1CCC[C@@H](n2nc(-c3ccc(Oc4ccccc4)cc3)c3c(N)ncnc32)C1"
Completion: 38

Prompt: // lookup residual activity | system=TESK1 (human) (UniProt Q15569) | key= "COC(=O)/C=C/C(=O)OC"
Completion: 84

Prompt: // lookup residual activity | system=TESK1 (human) (UniProt Q15569) | key= "CNc1nc(-c2ccc3c(N)n[nH]c3c2)cc(N2C[C@@H](C(=O)NC3CCCCC3)CC[C@H]2C)n1"
Completion: 101

###

- EXPERIMENTAL TARGET: HIPK3 (human) (UniProt Q9H422)
- Sequence (Q9H422 whole entry, looked up): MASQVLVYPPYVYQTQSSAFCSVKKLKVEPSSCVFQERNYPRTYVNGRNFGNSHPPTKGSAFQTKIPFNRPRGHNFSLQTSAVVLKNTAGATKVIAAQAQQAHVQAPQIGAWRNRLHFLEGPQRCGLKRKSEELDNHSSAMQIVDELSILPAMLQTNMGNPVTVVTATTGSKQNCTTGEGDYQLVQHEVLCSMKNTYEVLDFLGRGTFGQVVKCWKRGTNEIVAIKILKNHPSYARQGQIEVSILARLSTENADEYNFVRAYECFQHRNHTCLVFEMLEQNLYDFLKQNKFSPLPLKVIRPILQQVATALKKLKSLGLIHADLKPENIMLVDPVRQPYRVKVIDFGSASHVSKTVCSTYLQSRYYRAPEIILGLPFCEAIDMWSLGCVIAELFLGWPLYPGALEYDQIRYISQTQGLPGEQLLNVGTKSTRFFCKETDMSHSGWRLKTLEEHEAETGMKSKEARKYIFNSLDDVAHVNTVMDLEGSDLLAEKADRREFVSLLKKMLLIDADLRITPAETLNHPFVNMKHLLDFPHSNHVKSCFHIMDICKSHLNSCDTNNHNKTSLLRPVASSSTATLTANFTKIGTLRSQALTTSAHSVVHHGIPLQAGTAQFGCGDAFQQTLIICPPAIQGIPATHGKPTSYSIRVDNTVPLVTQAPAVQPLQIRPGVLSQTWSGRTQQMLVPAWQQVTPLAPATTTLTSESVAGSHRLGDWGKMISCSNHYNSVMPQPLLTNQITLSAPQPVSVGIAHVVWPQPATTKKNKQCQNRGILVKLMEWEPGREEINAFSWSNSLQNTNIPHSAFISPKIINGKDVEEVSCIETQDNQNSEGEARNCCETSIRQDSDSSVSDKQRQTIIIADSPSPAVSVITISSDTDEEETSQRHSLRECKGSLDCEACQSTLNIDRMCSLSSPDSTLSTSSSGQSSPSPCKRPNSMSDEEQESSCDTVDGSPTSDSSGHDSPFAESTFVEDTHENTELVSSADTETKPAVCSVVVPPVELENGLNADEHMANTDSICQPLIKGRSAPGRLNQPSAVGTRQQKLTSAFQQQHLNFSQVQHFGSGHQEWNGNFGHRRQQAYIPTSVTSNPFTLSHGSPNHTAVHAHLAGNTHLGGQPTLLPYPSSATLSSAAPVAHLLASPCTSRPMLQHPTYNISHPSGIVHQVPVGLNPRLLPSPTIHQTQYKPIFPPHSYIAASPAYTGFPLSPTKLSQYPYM
- METHOD SUMMARY: radiometric filter-binding kinase assay
- MEASUREMENT CONTEXT: compound 0.1 µM
Is residual activity at least 90%? Then fulfilled. If not, not fulfilled.

Prompt: Exam item: decide whether the reported residual activity for "O=C(N[C@@H](COc1ccc2[nH]c(=O)[nH]c2c1)c1ccccc1)c1cccn(Cc2ccc(F)c(F)c2)c1=O" is at least 90%.
Completion: fulfilled

Prompt: Exam item: decide whether the reported residual activity for "CNc1nc(-c2ccc3c(N)n[nH]c3c2)cc(N2C[C@@H](C(=O)NC3CCCCC3)CC[C@H]2C)n1" is at least 90%.
Completion: fulfilled

Prompt: Exam item: decide whether the reported residual activity for "C=CC(=O)N1CCC[C@@H](n2nc(-c3ccc(Oc4ccccc4)cc3)c3c(N)ncnc32)C1" is at least 90%.
Completion: fulfilled

Prompt: Exam item: decide whether the reported residual activity for COc1ccc2c(c1)c1c3c(c4c5ccccc5n(C)c4c1n2CC(O)CN(C)C)C(=O)NC3=O (stereo not drawn) is at least 90%.
Completion: fulfilled

Prompt: Exam item: decide whether the reported residual activity for "COc1ccc(N(C(=O)Nc2c(C)cccc2C)c2cc(Nc3ccc(N4CCN(C)CC4)cc3)ncn2)c(OC)c1" is at least 90%.
Completion: not fulfilled

Prompt: Exam item: decide whether the reported residual activity for "Cc1ccc(Sc2cnc(Nc3cccc(Br)n3)s2)cc1C(=O)N1CCN(C(=O)CN)CC1" is at least 90%.
Completion: not fulfilled

Prompt: Exam item: decide whether the reported residual activity for "CN(C)C/C=C/C(=O)Nc1cccc(C(=O)Nc2ccc(Nc3nccc(-c4cccnc4)n3)cc2)c1" is at least 90%.
Completion: fulfilled

Prompt: Exam item: decide whether the reported residual activity for "Cc1cc(NC(=O)c2cccc(NC(=O)/C=C/CN(C)C)c2)ccc1Nc1nccc(-c2cccnc2)n1" is at least 90%.
Completion: fulfilled

Prompt: Exam item: decide whether the reported residual activity for "Cc1ccc(-c2ccc3c(ccc4sc5c(c43)NC[C@@H](C)NC5=O)n2)cn1" is at least 90%.
Completion: fulfilled

Prompt: Exam item: decide whether the reported residual activity for CNC(=O)C1[C@H]2O[C@@](C)([C@@H]1N)n1c3ccccc3c3c4c(c5c6ccccc6n2c5c31)C(=O)NC4 (stereo partly drawn) is at least 90%.
Completion: not fulfilled

Prompt: Exam item: decide whether the reported residual activity for "CCn1c(-c2nonc2N)nc2cncc(CNC3CCNCC3)c21" is at least 90%.
Completion: fulfilled

Prompt: Exam item: decide whether the reported residual activity for "NC(=O)c1cc2c(-c3cccc(-c4ccccc4)c3)cnc(N)c2s1" is at least 90%.
Completion: not fulfilled

Prompt: Exam item: decide whether the reported residual activity for "COc1ccc(-n2ncc3cnc(Nc4cc(OC)c(OC)c(OCCCN5CCN(C)CC5)c4)nc32)cc1" is at least 90%.
Completion: not fulfilled

Prompt: Exam item: decide whether the reported residual activity for "c1ccc2c(-c3cnn4cc(-c5ccc(N6CCNCC6)cc5)cnc34)ccnc2c1" is at least 90%.
Completion: fulfilled

Prompt: Exam item: decide whether the reported residual activity for "NC1(c2ccc(-c3nc4ccn5c(=O)[nH]nc5c4cc3-c3ccccc3)cc2)CCC1" is at least 90%.
Completion: fulfilled

###

Please respond with reported residual activity for every item in the list.
- EXPERIMENTAL TARGET: EEF2K (human)
- METHOD SUMMARY: radiometric filter-binding kinase assay
- MEASUREMENT CONTEXT: compound 1.0 µM
Give a bare numeral; the unit % is implied.

Prompt: Request the reported residual activity associated with "O=C(NOC[C@H](O)CO)c1ccc(F)c(F)c1Nc1ccc(I)cc1Cl"
Completion: 83

Prompt: Request the reported residual activity associated with "CCCC(CCC)C(=O)O"
Completion: 97

Prompt: Request the reported residual activity associated with CNC(=O)C1[C@H]2O[C@@](C)([C@@H]1N)n1c3ccccc3c3c4c(c5c6ccccc6n2c5c31)C(=O)NC4 (stereo partly specified)
Completion: 79

Prompt: Request the reported residual activity associated with "NC(=O)Nc1ccc2c(c1)/C(=C/c1cc(-c3cccnc3)c[nH]1)C(=O)N2"
Completion: 86

Prompt: Request the reported residual activity associated with "Oc1ccc(/C=C/c2cc(O)cc(O)c2)cc1"
Completion: 95

Prompt: Request the reported residual activity associated with "CC(C)(C#N)c1ccc(N2C(=O)OCc3cnc4ccc(-c5cnc6ccccc6c5)cc4c32)cc1"
Completion: 99

###

- EXPERIMENTAL TARGET: YES1 (human) (UniProt P07947)
- Sequence (P07947 whole entry, looked up): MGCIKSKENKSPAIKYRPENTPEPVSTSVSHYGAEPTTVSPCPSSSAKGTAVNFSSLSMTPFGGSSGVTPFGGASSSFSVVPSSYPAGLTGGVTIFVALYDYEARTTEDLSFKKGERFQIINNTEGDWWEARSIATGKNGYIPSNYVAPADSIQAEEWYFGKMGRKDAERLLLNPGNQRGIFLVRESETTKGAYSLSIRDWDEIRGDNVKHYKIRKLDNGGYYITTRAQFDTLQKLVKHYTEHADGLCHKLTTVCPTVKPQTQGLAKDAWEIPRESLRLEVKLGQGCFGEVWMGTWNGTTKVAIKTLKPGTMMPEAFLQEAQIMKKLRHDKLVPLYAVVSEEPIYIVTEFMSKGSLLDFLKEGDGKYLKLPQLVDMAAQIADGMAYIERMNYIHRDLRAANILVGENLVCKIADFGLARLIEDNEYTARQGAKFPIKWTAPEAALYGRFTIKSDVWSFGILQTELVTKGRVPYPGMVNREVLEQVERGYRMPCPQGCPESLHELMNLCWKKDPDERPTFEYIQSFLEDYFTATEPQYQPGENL
- METHOD SUMMARY: radiometric filter-binding kinase assay
- MEASUREMENT CONTEXT: compound 10.0 µM
OBSERVED PROPERTY: residual activity (%)
Give a bare numeral; the unit % is implied.

Prompt: Request the reported residual activity associated with "NC(=O)c1ccc(-c2ccc(Oc3cncc4sc(-c5nn[nH]n5)cc34)cc2)cc1"
Completion: 87

Prompt: Request the reported residual activity associated with "C[C@H]1CCCC(=O)CCC/C=C/c2cc(O)cc(O)c2C(=O)O1"
Completion: 35

Prompt: Request the reported residual activity associated with "O=C(O)c1ccc(-c2c[nH]c3ncc(-c4ccccc4)cc23)cc1C1CCCC1"
Completion: 42

Prompt: Request the reported residual activity associated with Nc1cccc2c1CN(C1CCC(=O)NC1=O)C2=O (configuration not stated)
Completion: 102

Prompt: Request the reported residual activity associated with "NCC(=O)Nc1ccc(-n2nc(C(F)(F)F)cc2-c2ccc3c(ccc4ccccc43)c2)cc1"
Completion: 80

Prompt: Request the reported residual activity associated with "Cc1ccc(=O)n(-c2ccccc2)c1"
Completion: 109

Prompt: Request the reported residual activity associated with O=C1Nc2nc(-c3c(O)cccc3OCC3CC3)cc(C3CCCNC3)c2CO1 (configuration not stated)
Completion: 49

Prompt: Request the reported residual activity associated with "NC(=O)c1c(NC(=O)C2CC2)sc2c1CCCC2"
Completion: 79

Prompt: Request the reported residual activity associated with "NC(=O)c1cc2c(-c3cccc(-c4ccccc4)c3)cnc(N)c2s1"
Completion: 13

Prompt: Request the reported residual activity associated with "c1ccc2c(-c3cnn4cc(-c5ccc(N6CCNCC6)cc5)cnc34)ccnc2c1"
Completion: 7

Prompt: Request the reported residual activity associated with "CCc1cncnc1N1CCN(Cc2nc3cc(C(F)(F)F)ccc3[nH]2)CC1"
Completion: 76

Prompt: Request the reported residual activity associated with O=C(NOCC(O)CO)c1ccc(F)c(F)c1Nc1ccc(I)cc1Cl (configuration not stated)
Completion: 79

Prompt: Request the reported residual activity associated with "N#Cc1c(O)c2c(-c3ccc(-c4ccccc4O)cc3)csc2[nH]c1=O"
Completion: 96

Prompt: Request the reported residual activity associated with "Cc1ccc(-c2ccc3c(ccc4sc5c(c43)NC[C@@H](C)NC5=O)n2)cn1"
Completion: 55

Prompt: Request the reported residual activity associated with "COc1cc(C(=O)N2CCOCC2)c(F)cc1Nc1ncc(C(F)(F)F)c(NC2CC2)n1"
Completion: 110

Prompt: Request the reported residual activity associated with "Cc1cc(SCc2sc(-c3ccc(C(F)(F)F)cc3)nc2C)ccc1OCC(=O)O"
Completion: 102

Prompt: Request the reported residual activity associated with "CN1C(=O)[C@@H](Cc2c[nH]c3ccccc23)NC1=S"
Completion: 92

Prompt: Request the reported residual activity associated with "NS(=O)(=O)OC[C@@H]1C[C@@H](n2ccc3c(N[C@H]4CCc5ccccc54)ncnc32)C[C@@H]1O"
Completion: 79

Prompt: Request the reported residual activity associated with "Cc1ccc2c(c1)C(=O)[C@@]1(O)CCN(c3ccccc3)C1=N2"
Completion: 96

Prompt: Request the reported residual activity associated with "O=C1NC(=S)N[C@@H]1Cc1c[nH]c2ccccc12"
Completion: 96

Prompt: Request the reported residual activity associated with "COC(=O)/C=C/C(=O)OC"
Completion: 114

Prompt: Request the reported residual activity associated with "Oc1ccc2ccccc2c1SSc1c(O)ccc2ccccc12"
Completion: 60
